- Tgt: HLA-A*02:01 (Homo sapiens, UniProt P04439, D140Y/D185E/D98H/E176V/E277Q/G131W/G231S/I119V/I121R/I166T/I218V/L300P/L318F/N151K/N90K/P208A/P217A/Q86G/Q94H/R138H/R169H/T345S)
- Test description: MHC binding assay (UV-ligand exchange, beta2m ELISA)
- Condition summary: binding to HLA-A*02:01, β2m ELISA
Reported property: Peptide exchange (MHC class I binding score, peptide exchange yield)

Worked cases, answers included:
191 (AAIEIFEKV; listed as Homo sapiens) [compound 191]
+++ (≧50 = +++)
230 (KLLNMIFSI; listed as Homo sapiens) [compound 230]
+++ (≧50 = +++)
180 (RLYEEEIRI; listed as Homo sapiens) [compound 180]
+++ (≧50 = +++)
99 (TLFGIQLTEA; listed as Homo sapiens) [compound 99]
+++ (≧50 = +++)

Look at this substance and give its reported Peptide exchange (MHC class I binding score, peptide exchange yield). 241 (KQFEGTVEI; listed as Homo sapiens) [compound 241]
+++ (≧50 = +++)

====

- Tgt: HLA-A*02:01 (Homo sapiens, UniProt P04439, D140Y/D185E/D98H/E176V/E277Q/G131W/G231S/I119V/I121R/I166T/I218V/L300P/L318F/N151K/N90K/P208A/P217A/Q86G/Q94H/R138H/R169H/T345S)
- Test description: MHC binding assay (UV-ligand exchange, beta2m ELISA)
- Condition summary: binding to HLA-A*02:01, β2m ELISA
Reported property: Peptide exchange (MHC class I binding score, peptide exchange yield)

Worked cases, answers included:
9 (SLITGQDLLSV; listed as Homo sapiens) [compound 9]
+++ (≧50 = +++)
49 (KLIGNIHGNEV; listed as Homo sapiens) [compound 49]
++ (≧20% = ++)
257 (KLIDHQGLYL; listed as Homo sapiens) [compound 257]
+++ (≧50 = +++)
60 (YLFSQGLQGL; listed as Homo sapiens) [compound 60]
+++ (≧50 = +++)
213 (ILAVDGVLSV; listed as Homo sapiens) [compound 213]
+++ (≧50 = +++)
153 (KLVELEHTL; listed as Homo sapiens) [compound 153]
+++ (≧50 = +++)
198 (ILTNKVVSV; listed as Homo sapiens) [compound 198]
++ (≧20% = ++)
106 (VLLGSVVIFA; listed as Homo sapiens) [compound 106]
++ (≧20% = ++)

Look at this substance and give its reported Peptide exchange (MHC class I binding score, peptide exchange yield). 79 (TVLEEIGNRV; listed as Homo sapiens) [compound 79]
++ (≧20% = ++)

And what about the substance 271 (VLIEYNFSI; listed as Homo sapiens) [compound 271] ?
+++ (≧50 = +++)

And what about the substance 1 (KLQEKIQEL; listed as Homo sapiens) [compound 1] ?
++++ (≧75% = ++++)

And what about the substance 133 (FLDGRPLTL; listed as Homo sapiens) [compound 133] ?
++ (≧20% = ++)

And what about the substance 174 (ALYSGDLHAA; listed as Homo sapiens) [compound 174] ?
++ (≧20% = ++)

And what about the substance 44 (AVFNLVHVV; listed as Homo sapiens) [compound 44] ?
+++ (≧50 = +++)

And what about the substance 184 (ALDSTIAHL; listed as Homo sapiens) [compound 184] ?
++ (≧20% = ++)

And what about the substance 7 (ALLQALMEL; listed as Homo sapiens) [compound 7] ?
+++ (≧50 = +++)

And what about the substance 65 (SLSEKSPEV; listed as Homo sapiens) [compound 65] ?
++ (≧20% = ++)

And what about the substance 112 (ILAQDVAQL; listed as Homo sapiens) [compound 112] ?
+++ (≧50 = +++)

And what about the substance 6 (FLNAIETAL; listed as Homo sapiens) [compound 6] ?
++++ (≧75% = ++++)

And what about the substance 148 (YLILSSHQL; listed as Homo sapiens) [compound 148] ?
+++ (≧50 = +++)

And what about the substance 254 (ALGDKFLLRV; listed as Homo sapiens) [compound 254] ?
++ (≧20% = ++)

And what about the substance 208 (HLNNDRNPL; listed as Homo sapiens) [compound 208] ?
++ (≧20% = ++)

And what about the substance 224 (LLFDWSGTGRADA; listed as Homo sapiens) [compound 224] ?
+++ (≧50 = +++)

And what about the substance 111 (AQLEGKLVSI; listed as Homo sapiens) [compound 111] ?
+++ (≧50 = +++)

And what about the substance 155 (TLDSYLKAV; listed as Homo sapiens) [compound 155] ?
++ (≧20% = ++)

And what about the substance 21 (YLMDDFSSL; listed as Homo sapiens) [compound 21] ?
+++ (≧50 = +++)

And what about the substance 138 (GIINKLVTV; listed as Homo sapiens) [compound 138] ?
++ (≧20% = ++)

And what about the substance 164 (MLIIRVPSV; listed as Homo sapiens) [compound 164] ?
+++ (≧50 = +++)

And what about the substance 48 (KISDFGLATV; listed as Homo sapiens) [compound 48] ?
+++ (≧50 = +++)
